Biological target: UniProt:Q13304
Assay: Calcium mobilization functional assay (GPR17 Ca2+ assay)
Format: cell-based
Set-up: host or cells: Flp-In T-REx CHO
Conditions: CHO hGPR17 cells, inhibition of 50 nM MDL29,951, Calcium 5 dye, FLIPR; read-out: Ca2+ assay pIC50 (converted)
Items are presented alongside their recorded IC50.

Molecule	IC50
Cc1ccc2c(S(=O)(=O)Nc3cc(F)ccc3F)c[nH]c2c1 [Compound I-32]	> 31.6 nM
COc1ccc2c(S(=O)(=O)Nc3nc(OC)c(Cl)cc3F)c[nH]c2c1Cl [Compound I-356]	3.16 to 31.6 nM
COc1ccc2c(S(=O)(=O)Nc3cc(F)c(Cl)cc3F)c[nH]c2c1 [Compound I-221]	3.16 to 31.6 nM
N#Cc1ccc(NS(=O)(=O)c2c[nH]c3nc(Br)ccc23)cc1 [Compound I-80]	< 3.16 nM

Switching to the query record.
May I ask what IC50 has been recorded for CCOC(=O)/C=C/c1cc(F)c(NS(=O)(=O)c2c[nH]c3cc(Cl)ccc23)nc1F [Compound I-330] ?
3.16 to 31.6 nM

###

Molecular target: GPR17 (Homo sapiens)
Assay: cAMP accumulation functional assay (HTRF, Schild analysis)
Assay type: cell-based
Set-up: host or cells: Flp-In T-REx CHO
Conditions: CHO hGPR17 cells, Schild analysis vs MDL29,951, 5 μM forskolin, read-out: cAMP assay pA2 (converted)
Parameter Measured: Kb

Smiles String	Kb
O=S(=O)(Nc1ccc(S(F)(F)(F)(F)F)cc1F)c1c[nH]c2cc(Cl)ccc12	3.16 to 31.6 nM
O=S(=O)(Nc1cc(F)c(Cl)cc1F)c1c[nH]c2c(Cl)c(Br)ccc12	< 3.16 nM
COc1nc(NS(=O)(=O)c2c[nH]c3c2ccc2ccccc23)c(F)cc1Cl	< 3.16 nM

Quick check: Kb of `O=S(=O)(Nc1nc(F)c(Cl)cc1F)c1c[nH]c2cc(Cl)ccc12` ?
< 3.16 nM

Another compound to check: `COc1ccc2c(S(=O)(=O)Nc3cc(F)c(C#N)cc3F)c[nH]c2c1`
< 3.16 nM

And for `Cc1cc(F)c(NS(=O)(=O)c2c[nH]c3cc(Cl)ccc23)cc1F` ?
< 3.16 nM

How about `COc1nc(NS(=O)(=O)c2c[nH]c3c(F)c(Cl)c(F)cc23)c(F)cc1Cl` ?
3.16 to 31.6 nM

Could you do the same for `N#Cc1ccc(NS(=O)(=O)c2c[nH]c3nc(Cl)ccc23)cc1` , please?
3.16 to 31.6 nM

###

Biological target: GPR17 (Homo sapiens, UniProt Q13304)
Sequence (Q13304 whole entry): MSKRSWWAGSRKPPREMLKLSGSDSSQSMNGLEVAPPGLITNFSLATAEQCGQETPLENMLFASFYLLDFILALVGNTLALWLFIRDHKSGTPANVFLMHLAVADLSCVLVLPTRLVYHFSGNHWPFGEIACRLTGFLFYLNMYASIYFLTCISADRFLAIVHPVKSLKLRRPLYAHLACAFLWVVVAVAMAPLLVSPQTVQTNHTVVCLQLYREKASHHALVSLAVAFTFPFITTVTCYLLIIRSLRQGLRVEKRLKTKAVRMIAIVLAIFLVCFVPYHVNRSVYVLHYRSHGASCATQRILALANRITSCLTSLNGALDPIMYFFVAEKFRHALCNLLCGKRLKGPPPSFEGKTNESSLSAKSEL
Test: Calcium mobilization functional assay (GPR17 Ca2+ assay)
Type: cell-based
Parameters: host or cells: Flp-In T-REx CHO
Settings: CHO hGPR17 cells, inhibition of 50 nM MDL29,951, Calcium 5 dye, FLIPR; read-out: Ca2+ assay pIC50 (converted)
// IC50 lookup, one value per entry

Please review the entries below; each comes with its answer.
Smiles String	IC50
N#Cc1cc(F)c(NS(=O)(=O)c2c[nH]c3cc(Br)ccc23)cc1F	< 3.16 nM
COc1ccc(-c2ccc3c(S(=O)(=O)Nc4ccc(C#N)cc4F)c[nH]c3c2)cc1	> 31.6 nM
O=c1[nH]c2cccc(NS(=O)(=O)c3c[nH]c4cc(Cl)ccc34)c2o1	3.16 to 31.6 nM
O=S(=O)(Nc1cc(F)c(Cl)cc1F)c1c[nH]c2cc(Cl)c(F)cc12	3.16 to 31.6 nM
O=S(=O)(Nc1nc(F)ccc1F)c1c[nH]c2cc(Cl)ccc12	3.16 to 31.6 nM

Fill in: IC50 of `Cc1ccc2c(S(=O)(=O)Nc3cccc4c3OCO4)c[nH]c2c1` is ___
> 31.6 nM

Query `COc1nc(NS(=O)(=O)c2c[nH]c3c(OC)c(Cl)ccc23)c(F)cc1Cl` next
< 3.16 nM

Item: `N#CCOc1cc(F)c(NS(=O)(=O)c2csc3cc(Cl)ccc23)cc1F`
3.16 to 31.6 nM
